- study conditions: human
Hepatotoxicity (choleostasis) under 2 gets Fulfilled, anything at or over 2 gets Not fulfilled.

Regarding `C[C@@](O)(/C=C/[C@H]1CC=CC(=O)O1)[C@@H](C[C@@H](O)\C=C/C=C\C=C\CO)OP(=O)(O)O` , kindly confirm whether its Hepatotoxicity (choleostasis) is beneath 2.
Fulfilled

Regarding `CC1(C)S[C@@H]2[C@H](NC(=O)[C@H](N)c3ccccc3)C(=O)N2[C@H]1C(=O)O` , kindly confirm whether its Hepatotoxicity (choleostasis) is beneath 2.
Not fulfilled

Regarding `CN1CCN(CCCN2c3ccccc3Sc3ccc(Cl)cc32)CC1` , kindly confirm whether its Hepatotoxicity (choleostasis) is beneath 2.
Not fulfilled

Regarding `NCCC(O)(P(=O)(O)O)P(=O)(O)O` , kindly confirm whether its Hepatotoxicity (choleostasis) is beneath 2.
Fulfilled

Regarding `O=C(O)C1=C(CSc2nnnn2CS(=O)(=O)O)CS[C@@H]2[C@H](NC(=O)[C@H](O)c3ccccc3)C(=O)N12` , kindly confirm whether its Hepatotoxicity (choleostasis) is beneath 2.
Fulfilled

Regarding `Oc1c(Cl)c(Cl)c(Cl)c(Cl)c1Cl` , kindly confirm whether its Hepatotoxicity (choleostasis) is beneath 2.
Fulfilled

Regarding `CO/N=C(\C(=O)N[C@@H]1C(=O)N2C(C(=O)O)=C(CSc3nnnn3C)CS[C@H]12)c1csc(N)n1` , kindly confirm whether its Hepatotoxicity (choleostasis) is beneath 2.
Fulfilled

----------
- study conditions: human, Liver
measure name: Hepatotoxicity (choleostasis)
// print number alone

The cases that follow already have their Hepatotoxicity (choleostasis) on record.
compound	Hepatotoxicity (choleostasis)
CN1C(C(=O)Nc2ccccn2)=C(O)c2sccc2S1(=O)=O [TENOXICAM]	2
Nc1ccc(S(=O)(=O)Nc2nccs2)cc1 [SULFATHIAZOLE]	0
COc1ccc2c3c1O[C@H]1[C@@H](O)C=C[C@H]4[C@@H](C2)N(C)CC[C@@]341 [CODEINE]	0
Nc1c2c(nc3ccccc13)CCCC2 [TACRINE]	1
OCCOCCN1CCN(C2=Nc3ccccc3Sc3ccccc32)CC1 [QUETIAPINE]	0
COc1cc(Cc2cnc(N)nc2N)cc(OC)c1OC [TRIMETHOPRIM]	5

Entry O=C(O)c1cc(-c2ccc(F)cc2F)ccc1O [DIFLUNISAL] ; Hepatotoxicity (choleostasis) = 4

Entry CN(C)CCC=C1c2ccccc2C=Cc2ccccc21 [CYCLOBENZAPRINE] ; Hepatotoxicity (choleostasis) = 0

Entry `CC(=O)[C@@]1(O)CC[C@H]2[C@@H]3C[C@H](C)C4=CC(=O)CC[C@]4(C)[C@H]3CC[C@@]21C` ; Hepatotoxicity (choleostasis) = 1

Entry CC(=O)O[C@H]1C(=O)[C@@]2(C)[C@H]([C@H](OC(=O)c3ccccc3)[C@]3(O)C[C@H](OC(=O)[C@H](O)[C@@H](NC(=O)c4ccccc4)c4ccccc4)C(C)=C1C3(C)C)[C@]1(OC(C)=O)CO[C@@H]1C[C@@H]2O [PACLITAXEL] ; Hepatotoxicity (choleostasis) = 0

Entry Clc1ccc2nsnc2c1NC1=NCCN1 [TIZANIDINE] ; Hepatotoxicity (choleostasis) = 0

Entry CNCCC=C1c2ccccc2CCc2ccccc21 [NORTRIPTYLINE] ; Hepatotoxicity (choleostasis) = 0

Entry CN(C)CCOC(c1ccccc1)c1ccccc1 [DIPHENHYDRAMINE] ; Hepatotoxicity (choleostasis) = 0

Entry Sc1ncnc2nc[nH]c12 [MERCAPTOPURINE ANHYDROUS] ; Hepatotoxicity (choleostasis) = 15

----------
- study conditions: human
measure name: Hepatotoxicity (choleostasis)
// print number alone

The cases that follow already have their Hepatotoxicity (choleostasis) on record.
> print(dat)
           substance  endpoint.value
1         LOBAPLATIN               0
2         CARBETIMER               0
3  TINZAPARIN SODIUM               0
4      INSULIN HUMAN               0
5       ASPARAGINASE               0

Entry `CISPLATIN` ; Hepatotoxicity (choleostasis) = 1

Entry INTERFERON ALFA-2A ; Hepatotoxicity (choleostasis) = 2

Entry `ALTEPLASE` ; Hepatotoxicity (choleostasis) = 0

Entry INTERFERON GAMMA-1A ; Hepatotoxicity (choleostasis) = 0

Entry INTERFERON BETA ; Hepatotoxicity (choleostasis) = 0

----------
- experiment notes: Times to onset, minimal and maximal, observed in the indexed observations. [column 'DELAI' in source]
- study conditions: human
This listing pairs compounds with measured Hepatotoxicity (time to onset).

> print(dat)
                                   compound     endpoint.value
1  CC(C)[C@](O)(C(=O)OCC1=CC[N+]2([O-])CC[C@@H](O)[C@@H]12)[C@H](C)O (some centres undefined) [INDICINE N-OXIDE]   1 cure - 2 cures
2   FC(F)OC(F)(F)C(F)Cl (centres undefined)  2 hours - 19 days
3  CC(C)COCC(CN(Cc1ccccc1)c1ccccc1)N1CCCC1 (centres undefined)   4 days - 20 days

Proceed to the following item.
Entry `CC(C)C[C@H]1C(=O)N2CCC[C@H]2[C@]2(O)O[C@](NC(=O)[C@@H]3C=C4c5cccc6[nH]c(Br)c(c56)C[C@H]4N(C)C3)(C(C)C)C(=O)N12` ; Hepatotoxicity (time to onset) = 4 days - 2 months

----------
- experiment notes: Highest frequency of moderate liver toxicity observed during clinical trials, expressed as a percentage. [column '% BIOL' in source]
- study conditions: human
measure name: Hepatotoxicity (moderate) (%)
Use % as the unit, but write only the number.

The cases that follow already have their Hepatotoxicity (moderate) on record.
> print(dat)
                                   compound  unit.of.measure  endpoint.value
1  CC(N)C12CC3CC(CC(C3)C1)C2 (stereo not drawn)                %             1.8
2  C[C@]12C/C(=C/O)C(=O)C[C@@H]1CC[C@@H]1[C@@H]2CC[C@@]2(C)[C@H]1CC[C@]2(C)O                %              50

Entry `COC(F)(F)C(Cl)Cl` ; Hepatotoxicity (moderate) = 0

Entry `COc1ccc(C(=O)N2CCN(c3ccc4c(c3)CCC(=O)N4)CC2)cc1OC` ; Hepatotoxicity (moderate) = 0.4

Entry `COc1ccc([C@@H]2Sc3cc(Cl)ccc3N(CCN(C)C)C(=O)[C@@H]2OC(C)=O)cc1` ; Hepatotoxicity (moderate) = 3.7

Entry `CN(C)CCC=C1c2ccccc2CCc2ccccc21` ; Hepatotoxicity (moderate) = 26

Entry CC[N+](C)(C/C=C/C1=C(C(=O)[O-])N2C(=O)[C@@H](NC(=O)/C(=N\OCF)c3nsc(N)n3)[C@H]2SC1)CC(N)=O (stereo partly drawn) ; Hepatotoxicity (moderate) = 37.5

Entry `COc1ccc([C@@H]2Sc3ccccc3N(CCN(C)C)C(=O)[C@@H]2OC(C)=O)cc1` ; Hepatotoxicity (moderate) = 6

----------
This listing pairs compounds with measured Hepatotoxicity (moderate).
- study conditions: human, serum

> print(dat)
                                   compound               measure.name  endpoint.value
1  CN(C)[C@@H]1C(O)=C(C(=O)NCN2CCCC2)C(=O)[C@@]2(O)C(O)=C3C(=O)c4c(O)cccc4[C@@](C)(O)[C@H]3C[C@@H]12  Hepatotoxicity (moderate)               0

Entry Clc1ccc(COC(Cn2ccnc2)c2ccc(Cl)cc2Cl)c(Cl)c1 (centres undefined) ; Hepatotoxicity (moderate) = 2

Entry O=C(OCC(O)CO)c1ccccc1Nc1ccnc2cc(Cl)ccc12 (centres undefined) ; Hepatotoxicity (moderate) = 2

----------
- study conditions: human
This listing pairs molecules with measured Hepatotoxicity (cytolytic).

molecule	Hepatotoxicity (cytolytic)
CCN(CC)C(=O)N1CCN(C)CC1	0
CN(C)CCN(Cc1ccccc1)c1ccccn1	1

Entry CCOC(=O)C1(c2ccccc2)CCN(CCC(O)c2ccccc2)CC1 (configuration not stated) ; Hepatotoxicity (cytolytic) = 0

Entry CC(C)COCC(CN(Cc1ccccc1)c1ccccc1)N1CCCC1 (configuration not stated) ; Hepatotoxicity (cytolytic) = 1

Entry `CN1CCN(C2=Nc3ccccc3Oc3ccc(Cl)cc32)CC1` ; Hepatotoxicity (cytolytic) = 0

Entry `Cc1onc(-c2ccccc2)c1C(=O)N[C@@H]1C(=O)N2[C@@H]1SC(C)(C)[C@@H]2C(=O)O` ; Hepatotoxicity (cytolytic) = 14

Entry `C[C@H]1c2cccc(O)c2C(=O)C2=C(O)[C@]3(O)C(=O)C(C(N)=O)=C(O)[C@@H](N(C)C)[C@@H]3[C@@H](O)[C@@H]21.O` ; Hepatotoxicity (cytolytic) = 1

Entry CC(=O)Nc1nnc(S(N)(=O)=O)s1 [ACETAZOLAMIDE] ; Hepatotoxicity (cytolytic) = 0

Entry `CN1C(C(=O)Nc2ccccn2)=C(O)c2ccccc2S1(=O)=O` ; Hepatotoxicity (cytolytic) = 13

Entry CCOC(=O)OC(C)OC(=O)[C@@H]1N2C(=O)[C@@H](NC(=O)[C@H](N)c3ccccc3)[C@H]2SC1(C)C (some centres not stated) ; Hepatotoxicity (cytolytic) = 0

Entry COc1ccc2[nH]c([S+]([O-])Cc3ncc(C)c(OC)c3C)nc2c1 (configuration not stated) ; Hepatotoxicity (cytolytic) = 8

Entry `OCCN1CCN(CCCN2c3ccccc3Sc3ccc(Cl)cc32)CC1` ; Hepatotoxicity (cytolytic) = 1

Entry `CO[C@@]1(NC(=O)Cc2cccs2)C(=O)N2C(C(=O)O)=C(COC(N)=O)CS[C@@H]21` ; Hepatotoxicity (cytolytic) = 0

Entry `C[C@H]1CC(=O)C[C@@H]2CC[C@H]3[C@@H]4CC[C@H](O)[C@@]4(C)CC[C@@H]3[C@]21C` ; Hepatotoxicity (cytolytic) = 1

Entry CC(C)(Oc1ccc(C2CC2(Cl)Cl)cc1)C(=O)O (configuration not stated) [CIPROFIBRATE] ; Hepatotoxicity (cytolytic) = 2

Entry `O=C[C@H](O)[C@@H](O)[C@H](O)[C@H](O)CO[C@H]1O[C@H](CO[C@H]2O[C@H](CO)[C@@H](O)[C@H](O)[C@H]2O)[C@@H](O)[C@H](O)[C@H]1O` ; Hepatotoxicity (cytolytic) = 0

Entry `OC(CCCN1CCCCC1)(c1ccccc1)c1ccccc1` ; Hepatotoxicity (cytolytic) = 0

Entry `CC[C@H]1OC(=O)[C@H](C)[C@@H](O[C@H]2C[C@@](C)(OC)[C@@H](O)[C@H](C)O2)[C@H](C)[C@@H](O[C@@H]2O[C@H](C)C[C@H](N(C)C)[C@H]2O)[C@](C)(O)C[C@](C)(F)C(=O)[C@H](C)[C@@H](O)[C@]1(C)O` ; Hepatotoxicity (cytolytic) = 0
